The measurements presented in this section are drawn from paper PMC4965013.

tested on: P. falciparum 3D7 trophozoites; experiment: Metabolomic fingerprint profiling LC-MS; assay type: cell-based, Plasmodium falciparum; conditions: metabolite level change after treatment
Would you please tag the item 1 when its Pyrophosphate is -0.02 or above, and 0 when it is below?

### Prompt Hello, I need to know if COc1ccc(C(=O)Nc2nonc2-c2ccc(OC)c(OC)c2)cc1Cl has measured Pyrophosphate not below -0.02. Thanks!
### Response 0

### Prompt // inclusive: Pyrophosphate at least -0.02? input: Cc1ccc(N2C(=O)C3C(C2=O)C2(c4ccccc4)C(=O)C3(c3ccccc3)C(c3ccccc3)=C2c2ccccc2)cc1 (stereo not drawn)
### Response 1

### Prompt Does Pyrophosphate meet or surpass -0.02 for OC(CNC1CCCCC1)Cn1c2ccccc2c2ccccc21 (stereo not drawn) ?
### Response 0

### Prompt Tell me whether Pyrophosphate is at least -0.02 here: CCOC(=O)c1cn(CC)c2cc(N3CCCCC3)c(F)cc2c1=O
### Response 0

### Prompt Determine whether this compound has Pyrophosphate no lower than -0.02: COc1ccccc1N=C1C(=O)c2ccccc2C(O)=C1N1CCCCC1
### Response 0
